- TARGET UNDER TEST: Dipeptidyl amino peptidase type IV (DPP IV)
- PROTOCOL SUMMARY: cell-based or functional assay
Where no end group is shown, it is not given here. [ ]: non-standard residue; d: D form. The star is where a group is joined. boroPro = OB(O)[C@@H]1CCCN1*
READOUT LABEL: IC50, pH 2 (Tetrapeptide Prodrugs) (µM)

{"BINDER": "PPP[boroPro] [ProProProboroPro]", "READING UNIT": "µM", "TEST VALUE": 10}
{"BINDER": "GPP[boroPro] [GlyProProboroPro]", "READING UNIT": "µM", "TEST VALUE": 9}
